Test system: S. aureus
ASSAY_PROTOCOL: Antimicrobial susceptibility (MIC/MBEC), standard assays in polystyrene wells
Assay type: cell-based
MEASUREMENT_CONTEXT: S. aureus, polystyrene wells
MEASURED_PROPERTY: MBEC (µg/mL)
The reply should contain only the number, in µg/mL.

| COMPOUND | UNITS_SYMBOL | READOUT_VALUE |
| --- | --- | --- |
| CN[C@H](CC(C)C)C(=O)N[C@H]1C(=O)N[C@@H](CC(N)=O)C(=O)N[C@H]2C(=O)N[C@H]3C(=O)N[C@H](C(=O)N[C@H](C(=O)O)c4cc(O)cc(O)c4-c4cc3ccc4O)[C@H](O)c3ccc(c(Cl)c3)Oc3cc2cc(c3O[C@@H]2O[C@H](CO)[C@@H](O)[C@H](O)[C@H]2O[C@H]2C[C@](C)(N)[C@H](O)[C@H](C)O2)Oc2ccc(cc2Cl)[C@H]1O | µg/mL | 8 |
| CN(C)c1ccc(O)c2c1C[C@H]1C[C@H]3[C@H](N(C)C)C(O)=C(C(N)=O)C(=O)[C@@]3(O)C(O)=C1C2=O | µg/mL | 16 |
| Cn1nnc(-c2ccc(-c3ccc(N4C[C@H](CO)OC4=O)cc3F)cn2)n1 | µg/mL | 8 |

Query compound follows.
Exercise: Please give the measured MBEC for this compound: `COc1c(N2C[C@@H]3CCCN[C@@H]3C2)c(F)cc2c(=O)c(C(=O)O)cn(C3CC3)c12`
Solution: 0.5

Where do the numbers come from? From patent US12285489B2.
